System: Shigella flexneri 2a 1675
Experiment: MIC against bacteria (Table I), strain (11)
Format: cell-based
Details: 2A1675; (11) Shigella flexneri 2a 1675; read-out: MIC
Text: Now, for illustrating the excellent pharmacological effects of the compounds of this invention, the values of MIC (γ/ml.) of the compounds against various bacteria are shown in Table 1, in which the compounds of this invention used are shown by example numbers.
One threshold, 2 µg/mL, splits the recorded MIC values: lower ones are Met, equal or higher ones are Not met.

Completed entries (count: 8):
O=C(O)Cc1nnc(SCC2=C(C(=O)O)N3C(=O)[C@@H](NC(=O)[C@H](NC(=O)c4csccc4=O)c4ccc(O)cc4)[C@H]3SC2)s1 [Example 32]: Met
Cc1nc(SCC2=C(C(=O)O)N3C(=O)[C@@H](NC(=O)[C@H](NC(=O)c4cnccc4O)c4ccccc4)[C@H]3SC2)sc1SCC(=O)O [Example 24]: Met
Nc1nc(SCC(=O)O)cc(SCC2=C(C(=O)O)N3C(=O)[C@@H](NC(=O)[C@H](NC(=O)c4cnccc4O)c4ccccc4)[C@H]3SC2)n1 [Example 19]: Not met
Cc1nc(SCC2=C(C(=O)O)N3C(=O)[C@@H](NC(=O)[C@H](NC(=O)c4cnccc4O)c4ccccc4)[C@H]3SC2)sc1CC(=O)O [Example 23]: Met
O=C(O)C1=C(CSc2nnc(SCCS(=O)(=O)O)s2)CS[C@@H]2[C@H](NC(=O)[C@H](NC(=O)c3cnccc3O)c3ccccc3)C(=O)N12 [Example 9]: Met
Nn1c(SCC(=O)O)nnc1SCC1=C(C(=O)O)N2C(=O)[C@@H](NC(=O)[C@H](NC(=O)c3cnccc3O)c3ccccc3)[C@H]2SC1 [Example 30]: Not met
O=C(O)CCSc1nnc(SCC2=C(C(=O)O)N3C(=O)[C@@H](NC(=O)[C@H](NC(=O)c4cnccc4O)c4ccccc4)[C@H]3SC2)s1 [Example 5]: Met
Cc1cc(O)c(C(=O)N[C@@H](C(=O)N[C@@H]2C(=O)N3C(C(=O)O)=C(CSc4nnc(SCC(=O)O)s4)CS[C@H]23)c2ccccc2)cn1 [Example 29]: Met

Asked: Hi there! Is MIC for Cc1nc(SCC2=C(C(=O)O)N3C(=O)[C@@H](NC(=O)[C@H](NC(=O)c4cnccc4O)c4ccccc4)[C@H]3SC2)sc1C(=O)O [Example 14] below 2 µg/mL, do you know?
Given back: Met

Asked: Hi there! Is MIC for CC(C)(Sc1nnc(SCC2=C(C(=O)O)N3C(=O)[C@@H](NC(=O)[C@H](NC(=O)c4cnccc4O)c4ccccc4)[C@H]3SC2)s1)C(=O)O [Example 22] below 2 µg/mL, do you know?
Given back: Met

Asked: Hi there! Is MIC for COc1cc(C)ncc1C(=O)N[C@@H](C(=O)N[C@@H]1C(=O)N2C(C(=O)O)=C(CSc3nnc(SCC(=O)O)s3)CS[C@H]12)c1ccccc1 [Example 37] below 2 µg/mL, do you know?
Given back: Not met

Asked: Hi there! Is MIC for CC(=O)OCC1=C(C(=O)O)N2C(=O)[C@@H](NC(=O)[C@H](N)c3ccccc3)[C@H]2SC1 [Cephaloglycin, reference compound] below 2 µg/mL, do you know?
Given back: Not met

Asked: Hi there! Is MIC for Cc1cc(O)c(C(=O)N[C@@H](C(=O)N[C@@H]2C(=O)N3C(C(=O)O)=C(CSc4nnc(CC(=O)O)s4)CS[C@H]23)c2ccccc2)cn1 [Example 38] below 2 µg/mL, do you know?
Given back: Met

Asked: Hi there! Is MIC for Cc1nnc(SCC2=C(C(=O)O)N3C(=O)[C@@H](NC(=O)Cn4cnnn4)[C@H]3SC2)s1 [Cephazolin, reference compound] below 2 µg/mL, do you know?
Given back: Met

Asked: Hi there! Is MIC for O=C(O)Cn1nc(SCC2=C(C(=O)O)N3C(=O)[C@@H](NC(=O)[C@H](NC(=O)c4cnccc4O)c4ccccc4)[C@H]3SC2)ccc1=O [Example 18] below 2 µg/mL, do you know?
Given back: Not met

Asked: Hi there! Is MIC for Cc1nc(SCC(=O)O)cc(SCC2=C(C(=O)O)N3C(=O)[C@@H](NC(=O)[C@H](NC(=O)c4cnccc4O)c4ccccc4)[C@H]3SC2)n1 [Example 17] below 2 µg/mL, do you know?
Given back: Not met

Asked: Hi there! Is MIC for O=C(O)CSc1nsc(SCC2=C(C(=O)O)N3C(=O)[C@@H](NC(=O)[C@H](NC(=O)c4cnccc4O)c4ccccc4)[C@H]3SC2)n1 [Example 13] below 2 µg/mL, do you know?
Given back: Met

Asked: Hi there! Is MIC for CC(Sc1nnc(SCC2=C(C(=O)O)N3C(=O)[C@@H](NC(=O)[C@H](NC(=O)c4cnccc4O)c4ccccc4)[C@H]3SC2)s1)C(=O)O (stereo partly drawn) [Example 21] below 2 µg/mL, do you know?
Given back: Met

Asked: Hi there! Is MIC for O=C(O)CSc1cc(SCC2=C(C(=O)O)N3C(=O)[C@@H](NC(=O)[C@H](NC(=O)c4cnccc4O)c4ccccc4)[C@H]3SC2)ncn1 [Example 16] below 2 µg/mL, do you know?
Given back: Not met

Asked: Hi there! Is MIC for O=C(O)Cn1nnnc1SCC1=C(C(=O)O)N2C(=O)[C@@H](NC(=O)[C@H](NC(=O)c3cnccc3O)c3ccccc3)[C@H]2SC1 [Example 15] below 2 µg/mL, do you know?
Given back: Not met

Asked: Hi there! Is MIC for O=C(O)C1=C(CSc2nnc(C(=O)O)s2)CS[C@@H]2[C@H](NC(=O)[C@H](NC(=O)c3cnccc3O)c3ccccc3)C(=O)N12 [Example 11] below 2 µg/mL, do you know?
Given back: Not met

Asked: Hi there! Is MIC for CC1=C(C(=O)O)N2C(=O)[C@@H](NC(=O)[C@H](N)c3ccccc3)[C@H]2SC1 [Cephalexin, reference compound] below 2 µg/mL, do you know?
Given back: Not met

Asked: Hi there! Is MIC for Cc1ncc(C(=O)N[C@@H](C(=O)N[C@@H]2C(=O)N3C(C(=O)O)=C(CSc4nnc(SCC(=O)O)s4)CS[C@H]23)c2ccccc2)c(O)n1 [Example 20] below 2 µg/mL, do you know?
Given back: Not met

Asked: Hi there! Is MIC for Cc1cc(O)c(C(=O)N[C@@H](C(=O)N[C@@H]2C(=O)N3C(C(=O)O)=C(CSc4nnc(CCCC(=O)O)s4)CS[C@H]23)c2ccccc2)cn1 [Example 36] below 2 µg/mL, do you know?
Given back: Met

Reference for the values: patent US4068074A
